- TARGET_UNDER_TEST: HCMV polymerase (Human cytomegalovirus)
- Construct: made in house; host or cells: recombinant baculovirus-infected SF-9 cells
- Sequence (P08546 whole entry): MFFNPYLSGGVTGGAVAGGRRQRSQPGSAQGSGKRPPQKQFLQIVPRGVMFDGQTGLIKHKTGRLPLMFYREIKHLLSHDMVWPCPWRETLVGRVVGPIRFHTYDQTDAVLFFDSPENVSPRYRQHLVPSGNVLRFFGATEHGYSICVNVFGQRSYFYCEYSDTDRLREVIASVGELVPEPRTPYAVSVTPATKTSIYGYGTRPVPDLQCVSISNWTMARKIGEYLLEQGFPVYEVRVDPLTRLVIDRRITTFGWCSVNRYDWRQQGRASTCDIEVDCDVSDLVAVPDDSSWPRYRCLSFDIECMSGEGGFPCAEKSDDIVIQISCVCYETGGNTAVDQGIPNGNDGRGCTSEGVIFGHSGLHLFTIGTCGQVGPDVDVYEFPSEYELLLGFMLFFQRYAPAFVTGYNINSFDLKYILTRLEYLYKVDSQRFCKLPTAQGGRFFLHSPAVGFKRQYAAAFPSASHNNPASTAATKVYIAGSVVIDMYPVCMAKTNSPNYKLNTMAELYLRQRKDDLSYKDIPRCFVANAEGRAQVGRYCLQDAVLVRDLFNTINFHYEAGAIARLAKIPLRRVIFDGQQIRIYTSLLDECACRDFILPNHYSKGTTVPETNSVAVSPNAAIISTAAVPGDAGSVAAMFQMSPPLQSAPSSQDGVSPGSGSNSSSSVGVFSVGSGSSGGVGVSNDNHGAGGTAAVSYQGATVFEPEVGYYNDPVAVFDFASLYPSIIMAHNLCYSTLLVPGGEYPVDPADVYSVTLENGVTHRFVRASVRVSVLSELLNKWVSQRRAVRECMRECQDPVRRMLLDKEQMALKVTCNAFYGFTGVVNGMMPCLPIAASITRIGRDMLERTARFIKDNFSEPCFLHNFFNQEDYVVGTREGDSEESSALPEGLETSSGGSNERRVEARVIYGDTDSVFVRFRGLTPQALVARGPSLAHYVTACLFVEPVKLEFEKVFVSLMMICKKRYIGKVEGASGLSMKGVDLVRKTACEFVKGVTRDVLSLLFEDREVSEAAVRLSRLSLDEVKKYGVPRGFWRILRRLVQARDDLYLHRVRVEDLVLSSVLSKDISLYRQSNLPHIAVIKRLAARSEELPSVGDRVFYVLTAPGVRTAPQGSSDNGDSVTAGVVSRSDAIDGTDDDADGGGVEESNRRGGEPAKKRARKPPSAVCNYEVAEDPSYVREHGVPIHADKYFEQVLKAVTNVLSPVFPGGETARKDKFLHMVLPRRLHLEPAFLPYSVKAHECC
- TEST_DETAILS: HCMV polymerase scintillation proximity assay (SPA)
- Assay type: biochemical
- CONDITIONS: 3H-dTTP incorporation
- Protocol: The HCMV polymerase assay is performed using a scintillation proximity assay (SPA) as described in several references, such as N.D. Cook, et al., Pharmaceutical Manufacturing International, pages 49-53 (1992); K. Takeuchi, Laboratory Practice, September issue (1992); U.S. Pat. No. 4,568,649 (1986); which are incorporated by reference herein. Reactions are performed in 96-well plates. […] Plates are incubated 10 min. at 37 C, then equilibrated to room temperature, and counted on a Packard Topcount. […]
Overview of recorded IC50 for various molecules
Report the figure in µM without appending any unit label.

MOLECULE | REPORTED
O=C(NCc1ccc(F)cc1)c1cn(-c2cccc(CCO)c2)c2ccc(CN3CCOCC3)cc2c1=O [Example 15] | 1.7
O=C(NCc1ccc(Cl)cc1)c1cn(-c2cccc(C#CCCCO)c2)c2ccc(CN3CCOCC3)cc2c1=O [Example 22] | 0.93
O=C(NCc1ccc(Cl)cc1)c1cn(-c2ccc(F)c(F)c2)c2ccc(CN3CCOCC3)cc2c1=O [Example 19] | 1.05
O=C(NCc1ccc(Cl)cc1)c1cn(-c2cccc(CCCCO)c2)c2ccc(CN3CCOCC3)cc2c1=O [Example 24] | 0.68

Let me know recorded IC50 for O=C(NCc1ccc(Cl)cc1)c1cn(-c2cccc(C#CCCO)c2)c2ccc(CN3CCOCC3)cc2c1=O [Example 21] , thanks.
1.13

----------
- TARGET_UNDER_TEST: VZV polymerase (Varicella-zoster virus, UniProt P09252)
- Sequence (P09252 whole entry): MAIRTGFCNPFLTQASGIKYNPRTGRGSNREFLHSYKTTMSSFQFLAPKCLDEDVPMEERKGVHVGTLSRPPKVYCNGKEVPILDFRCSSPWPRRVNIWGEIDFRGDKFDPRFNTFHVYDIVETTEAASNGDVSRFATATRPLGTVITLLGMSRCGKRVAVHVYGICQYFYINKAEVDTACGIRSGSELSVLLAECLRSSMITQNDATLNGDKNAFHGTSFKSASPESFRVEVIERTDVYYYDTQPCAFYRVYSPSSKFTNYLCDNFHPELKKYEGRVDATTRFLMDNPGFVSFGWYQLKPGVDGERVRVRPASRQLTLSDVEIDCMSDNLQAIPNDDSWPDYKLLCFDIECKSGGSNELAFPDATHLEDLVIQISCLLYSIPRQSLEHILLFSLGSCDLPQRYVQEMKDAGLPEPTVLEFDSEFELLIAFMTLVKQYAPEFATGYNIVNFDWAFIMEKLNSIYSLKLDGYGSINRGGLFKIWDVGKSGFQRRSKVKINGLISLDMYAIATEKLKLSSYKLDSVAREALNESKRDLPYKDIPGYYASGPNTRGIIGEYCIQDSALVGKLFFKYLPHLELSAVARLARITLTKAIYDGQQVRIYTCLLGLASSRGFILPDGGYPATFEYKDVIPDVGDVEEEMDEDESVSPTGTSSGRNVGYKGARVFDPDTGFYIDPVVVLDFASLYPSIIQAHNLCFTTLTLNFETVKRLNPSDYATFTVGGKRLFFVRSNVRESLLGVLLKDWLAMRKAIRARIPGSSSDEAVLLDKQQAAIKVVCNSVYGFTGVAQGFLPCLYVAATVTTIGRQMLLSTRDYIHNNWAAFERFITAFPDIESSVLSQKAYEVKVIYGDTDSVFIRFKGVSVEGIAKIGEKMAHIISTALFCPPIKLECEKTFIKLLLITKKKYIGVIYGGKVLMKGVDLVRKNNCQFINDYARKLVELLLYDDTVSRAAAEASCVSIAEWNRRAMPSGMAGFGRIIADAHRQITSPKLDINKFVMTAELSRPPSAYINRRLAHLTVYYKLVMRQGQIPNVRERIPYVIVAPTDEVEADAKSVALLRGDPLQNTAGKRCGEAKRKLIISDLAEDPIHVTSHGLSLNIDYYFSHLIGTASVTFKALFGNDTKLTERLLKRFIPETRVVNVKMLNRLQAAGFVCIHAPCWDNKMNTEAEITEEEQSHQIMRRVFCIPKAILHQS
- TEST_DETAILS: VZV polymerase assay (Table 1)
- Format: biochemical
PROPERTY_LABEL: IC50 (µM)
Report the figure in µM without appending any unit label.

A selection of reference data follows.
SUBSTANCE_SMILES | TARGET_UNDER_TEST | PROPERTY_LABEL | DISPLAY_UNIT | REPORTED
O=C(NCc1ccc(Cl)cc1)c1cn(-c2cccc(C#CCO)c2)c2ccc(CN3CCOCC3)cc2c1=O | VZV polymerase (Varicella-zoster virus, UniProt P09252) | IC50 | µM | 0.29
O=C(NCc1ccc(Cl)cc1)c1cn(-c2cccc(CCCO)c2)c2ccc(CN3CCOCC3)cc2c1=O | VZV polymerase (Varicella-zoster virus, UniProt P09252) | IC50 | µM | 0.48
O=C(NCc1ccc(Cl)cc1)c1cn(-c2ccccc2)c2ccc(CN3CCOCC3)cc2c1=O | VZV polymerase (Varicella-zoster virus, UniProt P09252) | IC50 | µM | 0.4

Let me know recorded IC50 for O=C(NCc1ccc(Cl)cc1)c1cn(-c2cccc(CCO)c2)c2ccc(CN3CCOCC3)cc2c1=O , thanks.
0.43

Let me know recorded IC50 for O=C(NCc1ccc(Cl)cc1)c1cn(-c2cccc(O)c2)c2ccc(CN3CCOCC3)cc2c1=O , thanks.
0.24

Let me know recorded IC50 for O=C(NCc1ccc(Cl)cc1)c1cn(-c2cccc(CO)c2)c2ccc(CN3CCOCC3)cc2c1=O , thanks.
0.31
